B1: mRNA-splicing (parent)
chain: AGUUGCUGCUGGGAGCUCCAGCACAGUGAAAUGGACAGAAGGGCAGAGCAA

- Variants of: B1
- Assay Summary: exon inclusion enrichment index; higher = more inclusion; WT1 exon 5 minigene, HEK293
Attribute Measured: exon inclusion enrichment index
Lab note: write the figure by itself, no unit.

Data request, read-out exon inclusion enrichment index, for G5A C6U U7A G8U C9A G11A G12U
0.01

Data request, read-out exon inclusion enrichment index, for A45C G46C
0.068

Data request, read-out exon inclusion enrichment index, for G33A G34C
0.0101

Data request, read-out exon inclusion enrichment index, for G5C C6A U7C G8A U10A A37U G38U
0.0186

Data request, read-out exon inclusion enrichment index, for G5U G8U C9U C24G A25U
0.208

Data request, read-out exon inclusion enrichment index, for G5C C6A U7C G8A U10A A31C
0.155

Data request, read-out exon inclusion enrichment index, for G5A U7C G8A U10C A35U
0.475

Data request, read-out exon inclusion enrichment index, for G5A U7C G8A U10C C18A C19A
0.451

Data request, read-out exon inclusion enrichment index, for C6A U7C C9A U10C G42U G43C
2.05

Data request, read-out exon inclusion enrichment index, for G5C C6A U7C G8A U10A G21U
0.0631

Data request, read-out exon inclusion enrichment index, for G5A C6U U7A G8U C9A U27A G28U
0.0109

Data request, read-out exon inclusion enrichment index, for G5C C6A U7C G8A U10A C22U A23G
0.114

Data request, read-out exon inclusion enrichment index, for U3C U4A G5C C6U G8C C9U U10C
1.61

Data request, read-out exon inclusion enrichment index, for C6A G8C C9U U10C
1.43

Data request, read-out exon inclusion enrichment index, for G5A C6U U7G C9A
0.561

Data request, read-out exon inclusion enrichment index, for C6A U7C C9A U10C G21C
3.66

Data request, read-out exon inclusion enrichment index, for G2C U3G
0.163

Data request, read-out exon inclusion enrichment index, for C6A U7A C9A U10A A37U G38U
0.112

Data request, read-out exon inclusion enrichment index, for C6A U7A C9A U10A A37U G38A
0.258

Data request, read-out exon inclusion enrichment index, for U4C G5U C6A U7A C9A U10A
0.296

Data request, read-out exon inclusion enrichment index, for G5A C6G U7G C9A G26A
0.00477

Data request, read-out exon inclusion enrichment index, for G5A C6U U7A G8U C9A U10G G11U
0.014

Data request, read-out exon inclusion enrichment index, for C22A A23C
2.97

Data request, read-out exon inclusion enrichment index, for G5U G8U C9U G15A C16U
0.0203

Data request, read-out exon inclusion enrichment index, for G5C C6G U7C U10C A29C
3.11

Data request, read-out exon inclusion enrichment index, for C44U A45U
0.0412

Data request, read-out exon inclusion enrichment index, for G2A U3C
0.0113

Data request, read-out exon inclusion enrichment index, for G5A C6G U7G C9A A39C A40G
0.0112

Data request, read-out exon inclusion enrichment index, for G5U G8U C9U A29G A30C
0.035

Data request, read-out exon inclusion enrichment index, for G2C U3A
0.0779

Data request, read-out exon inclusion enrichment index, for G5C C6U G8C C9U U10C G43C
1.75

Data request, read-out exon inclusion enrichment index, for G5C C6A U7C G8A U10A A23G
0.287

Data request, read-out exon inclusion enrichment index, for G5C C6U G8C C9U U10C A40C G41A
0.768

Data request, read-out exon inclusion enrichment index, for G5C C6G U7C U10C G43C C44U
3.09

Data request, read-out exon inclusion enrichment index, for C6A U7C C9A U10C C22U A23U
2.51

Data request, read-out exon inclusion enrichment index, for G8C C9G
0.884

Values were extracted from the RNAGym collection of RNA variant scans (doi:10.1101/gr.219683.116).
